Assay: Pharmacokinetics after single oral administration to rats
Type: in vivo, rat
Details: male, Wistar, rat, plasma, po, 100 mg/kg, Table S7, 100 mg/kg PO, male Wistar rats, plasma, mean of Rat#7-12; read-out: Cmax, Mean
readout_label: Cmax (µg/mL)
Give bare numbers, in µg/mL.

So, `COc1cc(Nc2ncnc(Nc3cc4c(cn3)NC(=O)C(C)(C)O4)n2)cc(OC)c1OC` ? Its Cmax was 0.864

* * *

Assay: Tissue distribution after single oral administration in rats
Assay type: in vivo, rat
Settings: rat; joint, 100 mg/kg PO, male Wistar rats, Estimated Value
readout_label: Cmax (ng/mL)
One number for each entry, in ng/mL.

So, `COc1cc(Nc2ncnc(Nc3cc4c(cn3)NC(=O)C(C)(C)O4)n2)cc(OC)c1OC` ? Its Cmax was 663
